Documented inhibition across a set of compounds
assay method text: StAR promoter reporter inhibitors, counter-screen for LRH-1 inverse agonist project, cell-based, luminescence, high throughput (AID 651611)
details: StAR promoter luciferase reporter counterscreen, at 3.6 µM, hits give high values
The response must be a number in % with no trailing unit.

[[record]]
compound = "COc1ccc(CCNC(=O)COC(=O)Cc2ccccc2[N+](=O)[O-])cc1"
metric = "inhibition"
uom = "%"
experimental_value = 8.86


Can you look up the measured inhibition of `COC1=CC(=O)c2nc(Cl)ccc2C1=O` for me?
56.2

If you can, please state the reported inhibition value of Cc1ccc(C(=O)Nc2sc3c(c2C(=O)O)CCC(C)C3)o1 (stereo unspecified) .
53.4

I am curious: what inhibition value has been reported for `O=C(COc1ccc2c3c(c(=O)oc2c1)CCCC3)NCCN1CCOCC1` ?
0.51

Quick one: inhibition of `COC1=CC(=O)c2c(ccc3ncnc(N)c23)C1=O` ?
62.4

Which inhibition reading was recorded for the compound `Cc1ccc(C)c(NC(=O)CSc2nc3c(oc4ccccc43)c(=O)n2-c2ccccc2)c1` ?
10.6

Tell me the measured inhibition of `CCN(Cc1ccccc1)c1ccc(/C=N/NS(=O)(=O)c2ccc(C)c([N+](=O)[O-])c2)cc1` , please.
10.9

Value lookup for inhibition; key = `COc1ccc(CCNC(=O)c2ccccc2NC(=O)CN2CCN(c3ccccc3O)CC2)cc1`
33.3

Fill blank: measured inhibition of the compound `CC(C)(O)C#Cc1ccc([C@@H]2C[C@H]3CN(c4ccccc4)C(=O)[C@]34CCCN24)s1` is ____.
61.3
